# target under test: μ-opioid receptor (Homo sapiens (Human), UniProt P35372)
# protocol summary: μ-opioid receptor [35S]GTPγS functional assay, HEK-293 cells (Table 6)
# Type: biochemical
# assay context: μ GTP
// returns Criterion not met unless EC50 is strictly below 80 nM, in which case Criterion met

{"item smiles": "O=C(NCc1cc(F)cc(F)c1)[C@H]1C[C@]23CCN(CC4CC4)[C@H](Cc4ccc(O)cc42)[C@]3(O)C1", "assigned class": "Criterion met"}
{"item smiles": "CN1CC[C@]23C[C@@H](NC(=O)c4ccccc4)C[C@@]2(O)[C@H]1Cc1ccc(O)cc13", "assigned class": "Criterion not met"}
{"item smiles": "Cc1ccc(CNC(=O)[C@@H]2C[C@]34CCN(C)[C@H](Cc5ccc(O)cc53)[C@]4(O)C2)cc1", "assigned class": "Criterion not met"}
{"item smiles": "Cc1ccc(CNC(=O)[C@H]2C[C@]34CCN(CC5CC5)[C@H](Cc5ccc(O)cc53)[C@]4(O)C2)cc1Cl", "assigned class": "Criterion met"}
{"item smiles": "CN1CC[C@]23C[C@@H](C(=O)NCc4ccc(O)cc4O)C[C@@]2(O)[C@H]1Cc1ccc(O)cc13", "assigned class": "Criterion not met"}

Pending compound:
Take the compound `O=C(NCCN1CCCCC1)[C@H]1C[C@]23CCN(CC4CC4)[C@H](Cc4ccc(O)cc42)[C@]3(O)C1` and say whether its EC50 is less than 80 nM.
Criterion met

====

In this section we review reported Emax values for a set of compounds.
# target under test: μ-opioid receptor (Homo sapiens (Human), UniProt P35372)
# protocol summary: μ-opioid receptor [35S]GTPγS functional assay, U-2 OS cells (Table 5)
# Format: biochemical
# assay context: relative to DAMGO
Supply the numeric figure in %, leaving out any unit text.

The following compounds have reported results that may help.
{"item smiles": "O=C(NCc1ccc(O)cc1)[C@@H]1C[C@]23CCN(CC4CC4)[C@H](Cc4ccc(O)cc42)[C@]3(O)C1", "Emax [%]": 42}
{"item smiles": "O=C(NCc1ccc(F)cc1)[C@@H]1C[C@]23CCN(CC4CC4)[C@H](Cc4ccc(O)cc42)[C@]3(O)C1", "Emax [%]": 40}
{"item smiles": "CC(C)CNC(=O)[C@H]1C[C@]23CCN(CC4CC4)[C@H](Cc4ccc(O)cc42)[C@]3(O)C1", "Emax [%]": 47.7}
{"item smiles": "O=C(NCc1ccccc1)[C@H]1C[C@]23CCN(CC4CC4)[C@H](Cc4ccc(O)cc42)[C@]3(O)C1", "Emax [%]": 94}
{"item smiles": "NC(=O)[C@H]1C[C@]23CCN(CC4CC4)[C@H](Cc4ccc(O)cc42)[C@]3(O)C1", "Emax [%]": 32}

As a next step, examine the compound that follows.
Entry under review: `CN1CC[C@]23C[C@H](C(N)=O)C[C@@]2(O)[C@H]1Cc1ccc(O)cc13` . Reported Emax?
94.7

====

# target under test: μ-opioid receptor (Homo sapiens (Human), UniProt P35372)
# protocol summary: μ-opioid receptor [35S]GTPγS functional assay, U-2 OS cells (Table 5)
# Type: biochemical
# assay context: relative to DAMGO
quantity name: Emax (%)
Supply the numeric figure in %, leaving out any unit text.

{"item smiles": "O=C(NCc1ccc(O)cc1O)[C@H]1C[C@]23CCN(CC4CC4)[C@H](Cc4ccc(O)cc42)[C@]3(O)C1", "target under test": "μ-opioid receptor (Homo sapiens (Human), UniProt P35372)", "Emax (%)": 35}
{"item smiles": "CC(C)CNC(=O)[C@@H]1C[C@]23CCN(CC4CC4)[C@H](Cc4ccc(O)cc42)[C@]3(O)C1", "target under test": "μ-opioid receptor (Homo sapiens (Human), UniProt P35372)", "Emax (%)": 29.7}
{"item smiles": "NC(=O)CNC(=O)[C@@H]1C[C@]23CCN(CC4CC4)[C@H](Cc4ccc(O)cc42)[C@]3(O)C1", "target under test": "μ-opioid receptor (Homo sapiens (Human), UniProt P35372)", "Emax (%)": 48.7}
{"item smiles": "O=C(O)[C@@H]1C[C@]23CCN(CC4CC4)[C@H](Cc4ccc(O)cc42)[C@]3(O)C1", "target under test": "μ-opioid receptor (Homo sapiens (Human), UniProt P35372)", "Emax (%)": 31.8}
{"item smiles": "COc1ccc2c(c1)[C@]13CCN(CC4CC4)[C@H](C2)[C@]1(O)C[C@H](C#N)C3", "target under test": "μ-opioid receptor (Homo sapiens (Human), UniProt P35372)", "Emax (%)": 54.3}
{"item smiles": "COc1ccc2c(c1)[C@]13CCN(CC4CC4)[C@H](C2)[C@]1(O)C[C@H](N)C3", "target under test": "μ-opioid receptor (Homo sapiens (Human), UniProt P35372)", "Emax (%)": 8.67}
{"item smiles": "O=C(NCc1ccc(O)cc1O)[C@@H]1C[C@]23CCN(CC4CC4)[C@H](Cc4ccc(O)cc42)[C@]3(O)C1", "target under test": "μ-opioid receptor (Homo sapiens (Human), UniProt P35372)", "Emax (%)": 25.3}
{"item smiles": "O=C(NCc1ccc(Cl)cc1)[C@@H]1C[C@]23CCN(CC4CC4)[C@H](Cc4ccc(O)cc42)[C@]3(O)C1", "target under test": "μ-opioid receptor (Homo sapiens (Human), UniProt P35372)", "Emax (%)": 41.3}
{"item smiles": "NC(=O)[C@@H]1C[C@]23CCN(CC4CC4)[C@H](Cc4ccc(O)cc42)[C@]3(O)C1", "target under test": "μ-opioid receptor (Homo sapiens (Human), UniProt P35372)", "Emax (%)": 49}
{"item smiles": "O=C(NCc1ccc(Cl)cc1Cl)[C@H]1C[C@]23CCN(CC4CC4)[C@H](Cc4ccc(O)cc42)[C@]3(O)C1", "target under test": "μ-opioid receptor (Homo sapiens (Human), UniProt P35372)", "Emax (%)": 87}

Entry under review: `COc1ccc2c(c1)[C@]13CCN(CC4CC4)[C@H](C2)[C@]1(O)C[C@@H](C(=O)N1CCCC1)C3` . Reported Emax?
43.3

// next record `O=C([C@H]1C[C@]23CCN(CC4CC4)[C@H](Cc4ccc(O)cc42)[C@]3(O)C1)N1CCCCC1`
37.7

// next record `O=C(NCCc1ccccc1)[C@@H]1C[C@]23CCN(CC4CC4)[C@H](Cc4ccc(O)cc42)[C@]3(O)C1`
23.3

// next record `CN(C)C(=O)[C@@H]1C[C@]23CCN(CC4CC4)[C@H](Cc4ccc(O)cc42)[C@]3(O)C1`
25

// next record `CN1CC[C@]23C[C@@H](C(N)=O)C[C@@]2(O)[C@H]1Cc1ccc(O)cc13`
85

====

# target under test: μ-opioid receptor (Homo sapiens (Human), UniProt P35372)
# protocol summary: μ-opioid receptor [35S]GTPγS functional assay, HEK-293 cells (Table 6)
# Type: biochemical
# assay context: relative to DAMGO
In this section we review reported Emax values for a set of compounds.
Supply the numeric figure in %, leaving out any unit text.

The following compounds have reported results that may help.
{"item smiles": "O=C([C@H]1C[C@]23CCN(CC4CC4)[C@H](Cc4ccc(O)cc42)[C@]3(O)C1)N1CCN(c2ccccc2)CC1", "result units": "%", "Emax": 14.2}
{"item smiles": "CN1CC[C@]23C[C@@H](C(=O)NCCO)C[C@@]2(O)[C@H]1Cc1ccc(O)cc13", "result units": "%", "Emax": 23}
{"item smiles": "N#Cc1ccc2c(c1)[C@]13CCN(CC4CC4)[C@H](C2)[C@]1(O)C[C@H](C(=O)NCCN1CCOCC1)C3", "result units": "%", "Emax": 0.33}

As a next step, examine the compound that follows.
Please state recorded Emax (tested on μ-opioid receptor (Homo sapiens (Human), UniProt P35372)) of `CN1CC[C@]23C[C@@H](C(=O)NCCN4CCOCC4)C[C@@]2(O)[C@H]1Cc1ccc(O)cc13`
38.8

====

# target under test: UniProt P35372
# protocol summary: μ-opioid receptor [35S]GTPγS functional assay, HEK-293 or CHO cells (Table 4)
# Type: biochemical
# assay context: relative to DAMGO
quantity name: Emax (%)
Supply the numeric figure in %, leaving out any unit text.

The following compounds have reported results that may help.
{"compound": "CN1CC[C@]23C[C@H](C(N)=O)C[C@@]2(O)[C@H]1Cc1ccc(O)cc13", "target under test": "UniProt P35372", "result units": "%", "Emax": 27.4}
{"compound": "COc1ccc2c(c1)C13CCN(CC4CC4)[C@H](C2)[C@]1(O)C[C@@H](N)C3 (stereo in doubt)", "target under test": "UniProt P35372", "result units": "%", "Emax": 7.5}
{"compound": "O=C(NCc1ccccc1)[C@H]1C[C@]23CCN(CC4CC4)[C@H](Cc4ccc(O)cc42)[C@]3(O)C1", "target under test": "UniProt P35372", "result units": "%", "Emax": 40}

Entry under review: `O=C(NCc1ccc(O)cc1)[C@@H]1C[C@]23CCN(CC4CC4)[C@H](Cc4ccc(O)cc42)[C@]3(O)C1` . Reported Emax?
15

# credit: patent US9656962B2
